Task for the reader: assign each of the following compounds its reported Ki.
# target.of.assay: histamine H4 receptor (Homo sapiens, UniProt Q9H3N8)
# Construct: expressed in transfected cells; host or cells: CHO cells
# Sequence (Q9H3N8 whole entry): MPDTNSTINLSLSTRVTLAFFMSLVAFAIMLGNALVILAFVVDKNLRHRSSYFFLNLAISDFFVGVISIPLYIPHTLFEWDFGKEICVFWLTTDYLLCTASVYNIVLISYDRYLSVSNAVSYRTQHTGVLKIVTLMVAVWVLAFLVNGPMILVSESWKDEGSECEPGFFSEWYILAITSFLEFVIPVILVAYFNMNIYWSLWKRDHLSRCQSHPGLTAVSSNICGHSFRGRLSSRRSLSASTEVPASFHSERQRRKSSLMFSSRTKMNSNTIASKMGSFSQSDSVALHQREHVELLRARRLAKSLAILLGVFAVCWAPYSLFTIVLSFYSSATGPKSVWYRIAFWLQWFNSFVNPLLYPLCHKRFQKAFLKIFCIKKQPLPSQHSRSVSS
# procedure.details: H4 binding, method 1 ([3H]-histamine filtration binding on CHO cell membranes)
# measurement.conditions: H4 binding, method 1; Ki calculated from IC50 (Cheng-Prussoff)
# Experimental: Cell pellets from CHO cells expressing the histamine H4 receptor were homogenised in ice-cold 50 mM Tris-HCl/0.5 mM CaCl2 buffer containing a protease inhibitor cocktail (Roche®, United Kingdom) using a ground glass homogeniser. Homogenates were centrifuged at 48000 g for 30 min at 4° C. The membrane pellet was resuspended in fresh buffer and the centrifugation step was repeated as described above. The membrane pellet was resuspended in 50 mM Tris-HCl in the same volume as the original cell pellet. […]
Numeric answer only, unit nM assumed.

Fill in reported Ki for this entry: C[C@@H]1CN(c2cc(NCc3ccccc3F)nc(N)n2)CCN1 [Example 237]
211

Fill in reported Ki for this entry: CC(C)(C)CCNc1cc(N2CCNCC2)ncn1 [Example 111]
201

Fill in reported Ki for this entry: CN[C@@H]1CCN(c2cc(NCCC(F)(F)F)nc(N)n2)C1 [Example 235]
198

Fill in reported Ki for this entry: CN[C@@H]1CCN(c2cc(NCC(C)C)ncn2)C1 [Example 14]
13.6

Fill in reported Ki for this entry: CNc1cc(N2CCC(N)CC2)nc(N)n1 [Example 284]
1720

Fill in reported Ki for this entry: CNC1CN(c2cc(NCCOC)nc(N)n2)C1 [Example 182]
19.8

Fill in reported Ki for this entry: CCNc1cc(N2CCNCC2)nc(N)n1 [Example 214]
54.4

Fill in reported Ki for this entry: CNC1(C)CN(c2cc(NCC3CC3)nc(N)n2)C1 [Example 196]
33.1

Fill in reported Ki for this entry: CCCNc1cc(N2CC[C@@H](N)C2)nc(N)n1 [Example 219]
82.3

Fill in reported Ki for this entry: CCNc1cc(N2CCC(C)(N)C2)nc(N)n1 (stereo not shown) [Example 265]
705

---

Task for the reader: assign each of the following compounds its reported Ki.
# target.of.assay: histamine H4 receptor (Homo sapiens, UniProt Q9H3N8)
# Construct: expressed in transfected cells; host or cells: CHO cells
# procedure.details: H4 binding, method 1 ([3H]-histamine filtration binding on CHO cell membranes)
# measurement.conditions: H4 binding, method 1; Ki calculated from IC50 (Cheng-Prussoff)

Fill in reported Ki for this entry: CCNc1cc(N2CC(N3CCCC3)C2)nc(N)n1 [Example 197]
33.2 nM

Fill in reported Ki for this entry: CC(C)Nc1cc(N2CCC(N)CC2)nc(N)n1 [Example 234]
177 nM

Fill in reported Ki for this entry: CCCNc1cc(N2CC[C@@H](NC)C2)nc(N)n1 [Example 180]
17.4 nM

Fill in reported Ki for this entry: CC(C)(C)CCNc1cc(N[C@@H]2CCNC2)ncn1 [Example 7]
939 nM

Fill in reported Ki for this entry: CN1CC[C@@H](Nc2cc(NCCC(C)(C)C)ncn2)C1 [Example 8]
593 nM

Fill in reported Ki for this entry: CC(C)CNc1cc(N2C[C@H]3CNC[C@H]3C2)nc(N)n1 [Example 217]
80.6 nM

Fill in reported Ki for this entry: CN1CCN(c2cc(NCC3CC3)ncn2)CC1 [Example 106]
66.1 nM

Fill in reported Ki for this entry: CCCCNc1cc(N2CC[C@@H](NC)C2)ncn1 [Example 147]
17.3 nM

Fill in reported Ki for this entry: CN1CCN(c2cc(N3CCOCC3)ncn2)CC1 [Example 293]
3040 nM

Fill in reported Ki for this entry: Nc1nc(NCC2CC2)cc(N2CC[C@@H]3NCC[C@@H]3C2)n1 (racemic) [Example 188]
25.5 nM

Fill in reported Ki for this entry: Nc1nc(NCC2CC2)cc(N2CC[C@@H](N)C2)n1 [Example 215]
57.3 nM

Fill in reported Ki for this entry: CNC1CN(c2cc(NCC(C)C)nc(N)n2)C1 [Example 71]
1.29 nM

Fill in reported Ki for this entry: C[C@H]1CN(c2cc(NCc3cccc(F)c3)nc(N)n2)CCN1 [Example 228]
117 nM

Fill in reported Ki for this entry: CC(C)(C)CNc1cc(N2CC(N3CCCC3)C2)ncn1 [Example 192]
28.7 nM

Fill in reported Ki for this entry: Nc1nc(NC2CCC2)cc(N2C[C@@H]3CCCN[C@@H]3C2)n1 [Example 178]
16.1 nM

Fill in reported Ki for this entry: CCC(C)CNc1cc(N2CC(NC)C2)nc(N)n1 (stereo not drawn) [Example 128]
0.805 nM

Fill in reported Ki for this entry: CC(C)CCNc1cc(N2CCN(C)CC2)ncn1 [Example 100]
40.2 nM

Fill in reported Ki for this entry: CNC1(C)CN(c2cc(NCC(C)(C)C)nc(N)n2)C1 [Example 186]
22.2 nM

Fill in reported Ki for this entry: CN[C@@H]1CCN(c2cc(NC3CC3)ncn2)C1 [Example 203]
37.9 nM

Fill in reported Ki for this entry: C[C@H]1CN(c2cc(NCc3ccccc3F)nc(N)n2)CCN1 [Example 213]
52.9 nM

Fill in reported Ki for this entry: CC(C)(C)CCNc1cc(N2CC[C@@H](N)C2)nc(N)n1 [Example 225]
102 nM

---

# target.of.assay: histamine H4 receptor (Homo sapiens)
# Construct: expressed in transfected cells; host or cells: CHO cells
# procedure.details: H4 binding, method 2 ([3H]-histamine binding with Ysi WGA beads on CHO cell membranes)
# measurement.conditions: Method 2 (Ki (nM)), H4 binding, method 2; Ki calculated from IC50 (Cheng-Prussoff)
Task for the reader: assign each of the following compounds its reported Ki.
Numeric answer only, unit nM assumed.

Fill in reported Ki for this entry: CN1CCN(c2cc(NCC(C)(C)C)ncn2)CC1 [Example 99]
38.1

Fill in reported Ki for this entry: CN1C[C@@H]2CN(c3cc(NCC(C)(C)C)nc(N)n3)C[C@@H]2C1 [Example 39]
88.9

Fill in reported Ki for this entry: CCNc1cc(N2CCN[C@@H](C)C2)nc(N)n1 [Example 98]
56.2

Fill in reported Ki for this entry: CC(C)(C)CNc1cc(N2CCN3CCCC3C2)nc(N)n1 (centres unmarked) [Example 141]
4.97

Fill in reported Ki for this entry: Nc1nc(NCC2CC2)cc(N2C[C@H]3CCCN[C@H]3C2)n1 (racemic) [Example 28]
21.3

---

Task for the reader: assign each of the following compounds its reported Ki.
# target.of.assay: histamine H4 receptor (Homo sapiens, UniProt Q9H3N8)
# Construct: expressed in transfected cells; host or cells: CHO cells
# procedure.details: H4 binding, method 1 ([3H]-histamine filtration binding on CHO cell membranes)
# measurement.conditions: H4 binding, method 1; Ki calculated from IC50 (Cheng-Prussoff)
Numeric answer only, unit nM assumed.

Fill in reported Ki for this entry: `CCCNc1cc(N2CC(C)(NC)C2)nc(N)n1`
12.1

Fill in reported Ki for this entry: `Nc1nc(NCC2CC2)cc(N2C[C@H]3CCCN[C@H]3C2)n1`
3.83

Fill in reported Ki for this entry: `CNC1CN(c2cc(N[C@H](C)C(C)C)nc(N)n2)C1`
2.65

Fill in reported Ki for this entry: `CNC1CN(c2cc(NCCC(F)(F)F)nc(N)n2)C1`
8.94

Fill in reported Ki for this entry: `CN(C)CCNc1cc(NCC(C)(C)C)nc(N)n1`
16.8

---

Task for the reader: assign each of the following molecules its reported Ki.
# target.of.assay: histamine H4 receptor (Homo sapiens, UniProt Q9H3N8)
# Construct: expressed in transfected cells; host or cells: CHO cells
# procedure.details: H4 binding, method 2 ([3H]-histamine binding with Ysi WGA beads on CHO cell membranes)
# measurement.conditions: H4 binding, method 2; Ki calculated from IC50 (Cheng-Prussoff); read-out: Method 2 (Ki (nM))
Numeric answer only, unit nM assumed.

Fill in reported Ki for this entry: `CCNc1cc(N2CC[C@@H](N(C)C)C2)ncn1`
722

Fill in reported Ki for this entry: `CNC1CN(c2cc(NCCC(C)C)nc(N)n2)C1`
16.8

Fill in reported Ki for this entry: `CNc1cc(N2C[C@H]3CN(C)C[C@H]3C2)nc(N)n1`
662

Fill in reported Ki for this entry: `CNC1CN(c2cc(NCCO)ncn2)C1`
279

Fill in reported Ki for this entry: `CN[C@@H]1CCN(c2cc(NCCC(C)(C)C)ncn2)C1`
42.7

Fill in reported Ki for this entry: `CNC1CN(c2cc(NCC(C)(C)C)nc(N)n2)C1`
1.33

Fill in reported Ki for this entry: `CCNc1cc(N2CC[C@H](NC)C2)ncn1`
1740

Fill in reported Ki for this entry: `CC(C)(C)CCNc1cc(N[C@H]2CCN(Cc3ccccc3)C2)nc(N)n1`
7930

Fill in reported Ki for this entry: CC(C)(C)CCNc1cc(N2C[C@H]3CCCN[C@H]3C2)nc(N)n1 (racemic)
824

Fill in reported Ki for this entry: `Cc1c(NCC(C)C)ncnc1N1CCN(C)CC1`
426
